- Test system: T1, cMet-Fc fusion protein (extracellular domain of the cMet receptor expressed as an Fc-fusion protein) (human, UniProt P08581 25-932)
- T1 construct: extracellular domain; also called soluble cMet-Fc-fusion protein; soluble cMet receptor; not shown: Fc part
- T1 sequence (P08581 25-932): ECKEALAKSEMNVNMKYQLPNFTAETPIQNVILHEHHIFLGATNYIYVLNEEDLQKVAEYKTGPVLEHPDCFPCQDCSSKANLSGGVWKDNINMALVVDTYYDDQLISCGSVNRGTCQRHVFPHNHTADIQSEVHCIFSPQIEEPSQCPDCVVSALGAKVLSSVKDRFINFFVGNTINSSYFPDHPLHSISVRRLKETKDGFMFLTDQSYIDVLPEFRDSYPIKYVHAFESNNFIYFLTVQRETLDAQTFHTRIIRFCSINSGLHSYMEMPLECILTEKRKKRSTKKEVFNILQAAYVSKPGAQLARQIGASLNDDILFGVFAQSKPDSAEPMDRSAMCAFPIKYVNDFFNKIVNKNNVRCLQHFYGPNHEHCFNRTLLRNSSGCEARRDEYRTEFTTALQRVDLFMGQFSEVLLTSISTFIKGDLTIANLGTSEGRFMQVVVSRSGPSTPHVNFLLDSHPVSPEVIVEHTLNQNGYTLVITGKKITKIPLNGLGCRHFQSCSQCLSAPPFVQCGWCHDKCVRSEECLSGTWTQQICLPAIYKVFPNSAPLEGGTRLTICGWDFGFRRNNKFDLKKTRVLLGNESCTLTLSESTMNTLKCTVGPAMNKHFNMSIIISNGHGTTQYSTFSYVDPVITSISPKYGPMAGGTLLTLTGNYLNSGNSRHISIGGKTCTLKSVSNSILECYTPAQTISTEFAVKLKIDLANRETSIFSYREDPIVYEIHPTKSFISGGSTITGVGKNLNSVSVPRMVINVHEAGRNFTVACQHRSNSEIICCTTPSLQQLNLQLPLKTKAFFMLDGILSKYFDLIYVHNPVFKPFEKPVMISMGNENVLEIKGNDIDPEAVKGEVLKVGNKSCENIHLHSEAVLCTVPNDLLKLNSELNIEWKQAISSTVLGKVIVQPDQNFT
- Experimental details: phage ELISA on cMet-Fc, competitor HGF 500 ng/mL
Param threshold (90%) applies to % of binding in the absence of HGF; output Criterion met when value >= threshold, Criterion not met when value < threshold.

Binder | Classification
AGWSDCLGPPQFTCVHWGT [552-A01 peptide-displaying phage (SEQ ID NO: 083)] | Criterion not met
AQHGYLSPLKQYQMSHVEFWTY [94-A06 peptide-displaying phage (SEQ ID NO: 476)] | Criterion met
AGHFECPKHQYMCDMPGT [465-D04 peptide-displaying phage (SEQ ID NO: 042)] | Criterion not met
AGTIRCNLAMMVCMFEGT [444-B08 peptide-displaying phage (SEQ ID NO: 028)] | Criterion met
AQGFELWVDHTRNFFIAISP [127-A07 peptide-displaying phage (SEQ ID NO: 469)] | Criterion met
